Molecular target: Flt3 (D835Y) (h) (Homo sapiens, UniProt P36888, D835Y)
Construct: purchased Eurofins
Test: Radioisotope labeling kinase assay (Eurofins), Flt3 (D835Y)
Assay type: biochemical
Details: 1 μM compound; read-out: Inhibitory activity per unit concentration/Activity % Flt3 (D835Y) (h)
Procedure: An activity to a human recombinant protein kinase of a series of compounds was determined by a radioisotope labeling method, which was provided by Eurofins Company. […]
observationType: activity at 1 µM (%)

{"chemicalStructure": "C=CC(=O)Nc1cc2cc(c1)Nc1nccc(n1)-c1cccc(c1)COC/C=C/CN(C)C2", "measuredOn": "Flt3 (D835Y) (h) (Homo sapiens, UniProt P36888, D835Y)", "units": "%", "activity at 1 µM": 2}

a = O=C(/C=C/CN1CCOCC1)Nc1cc2cc(c1)Nc1nccc(n1)-c1cccc(c1)COC/C=C/COC2
b = O=C(/C=C/C(=O)N1CCCC1)Nc1cc2cc(c1)Nc1nccc(n1)-c1cccc(c1)COC/C=C/COC2
c = CN1C/C=C/COCc2cccc(c2)-c2ccnc(n2)Nc2cc(cc(NC(=O)/C=C/CN3CCCC3)c2)C1
Exercise: Hey, can you sort those molecules up there by activity at 1 µM, smallest first? Write out the labels following the order that was asked for.
Key: c, a, b
(c: 0%, a: 1%, b: 10%)

====

Molecular target: BTK (h) (Homo sapiens)
Construct: purchased Eurofins
Assay: Radioisotope labeling kinase assay (Eurofins), BTK
Type: biochemical
Conditions: 1 μM compound; read-out: Inhibitory activity per unit concentration/Activity % BTK (h)
observationType: activity at 1 µM (%)

Some solved entries appear below for comparison.
{"molecule": "CCCC#CC(=O)Nc1cc2cc(c1)Nc1nccc(n1)-c1cccc(c1)COC/C=C/CN(C)C2", "activity at 1 µM [%]": 80}
{"molecule": "O=C(/C=C/CN1CCCC1)Nc1cc2cc(c1)Nc1nccc(n1)-c1cccc(c1)COC/C=C/COC2", "activity at 1 µM [%]": 2}
{"molecule": "CN1C/C=C/COCc2cccc(c2)-c2ccnc(n2)Nc2cc(cc(NC(=O)/C=C/c3ccc(C#N)cc3)c2)C1", "activity at 1 µM [%]": 77}
{"molecule": "C#CC(=O)Nc1cc2cc(c1)Nc1nccc(n1)-c1cccc(c1)COC/C=C/COC2", "activity at 1 µM [%]": 8}
{"molecule": "O=C(/C=C/C(=O)N1CCOCC1)Nc1cc2cc(c1)Nc1nccc(n1)-c1cccc(c1)COC/C=C/COC2", "activity at 1 µM [%]": 31}
{"molecule": "C/C=C/C(=O)Nc1cc2cc(c1)Nc1nccc(n1)-c1cccc(c1)COC/C=C/COC2", "activity at 1 µM [%]": 9}
{"molecule": "C/C=C/C(=O)Nc1cc2cc(c1)Nc1nccc(n1)-c1cccc(c1)COC/C=C/CN(C)C2", "activity at 1 µM [%]": 57}
{"molecule": "CN1C/C=C/COCc2cccc(c2)-c2ccnc(n2)Nc2cc(cc(NC(=O)C#CCN3CCOCC3)c2)C1", "activity at 1 µM [%]": 72}

1 = C1=C/COCc2cccc(c2)-c2ccnc(n2)Nc2cc(cc(OC/C=C/CN3CCCC3)c2)COC/1
2 = O=C(C#CCN1CCOCC1)Nc1cc2cc(c1)Nc1nccc(n1)-c1cccc(c1)COC/C=C/COC2
Exercise: Sorting by activity at 1 µM in descending order, would 1 or 2 appear first? // output: label of the selected item
Key: 1
(1: 38%, 2: 17%)

====

Target: BTK (h) (Homo sapiens, UniProt Q06187)
Construct: purchased Eurofins
Sequence (Q06187 whole entry): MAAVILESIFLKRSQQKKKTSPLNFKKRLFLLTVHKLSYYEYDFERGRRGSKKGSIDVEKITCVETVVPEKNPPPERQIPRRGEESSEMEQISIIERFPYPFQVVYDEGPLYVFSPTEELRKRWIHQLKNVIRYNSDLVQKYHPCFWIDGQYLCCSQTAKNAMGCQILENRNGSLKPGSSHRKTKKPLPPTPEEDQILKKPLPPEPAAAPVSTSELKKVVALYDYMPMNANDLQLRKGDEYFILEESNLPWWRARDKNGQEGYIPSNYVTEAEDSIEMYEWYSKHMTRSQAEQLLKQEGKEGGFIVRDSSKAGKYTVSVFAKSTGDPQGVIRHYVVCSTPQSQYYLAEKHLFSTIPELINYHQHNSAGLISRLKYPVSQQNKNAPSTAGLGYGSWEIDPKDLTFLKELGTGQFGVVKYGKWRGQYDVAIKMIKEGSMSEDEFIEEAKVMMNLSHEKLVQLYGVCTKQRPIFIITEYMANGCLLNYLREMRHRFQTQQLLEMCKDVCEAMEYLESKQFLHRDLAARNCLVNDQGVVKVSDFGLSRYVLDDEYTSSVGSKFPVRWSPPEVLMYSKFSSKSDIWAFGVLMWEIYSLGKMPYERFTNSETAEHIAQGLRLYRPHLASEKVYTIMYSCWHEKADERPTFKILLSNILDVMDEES
Experiment: Radioisotope labeling kinase assay (Eurofins), BTK
Assay type: biochemical
Settings: 1 μM compound; read-out: Inhibitory activity per unit concentration/Activity % BTK (h)
observationType: activity at 1 µM (%)

Reference set, count: 5
{"chemicalStructure": "O=C(O)/C=C/C(=O)Nc1cc2cc(c1)Nc1nccc(n1)-c1cccc(c1)COC/C=C/COC2", "measuredOn": "BTK (h) (Homo sapiens, UniProt Q06187)", "units": "%", "activity at 1 µM": 62}
{"chemicalStructure": "N#Cc1ccc(/C=C/C(=O)Nc2cc3cc(c2)Nc2nccc(n2)-c2cccc(c2)COC/C=C/COC3)cc1", "measuredOn": "BTK (h) (Homo sapiens, UniProt Q06187)", "units": "%", "activity at 1 µM": 61}
{"chemicalStructure": "O=C(/C=C/C(F)(F)F)Nc1cc2cc(c1)Nc1nccc(n1)-c1cccc(c1)COC/C=C/COC2", "measuredOn": "BTK (h) (Homo sapiens, UniProt Q06187)", "units": "%", "activity at 1 µM": 88}
{"chemicalStructure": "C1=C/COCc2ccc(O/C=C/CN3CCCC3)c(c2)Nc2nccc(n2)-c2cccc(c2)CCC/1", "measuredOn": "BTK (h) (Homo sapiens, UniProt Q06187)", "units": "%", "activity at 1 µM": 87}
{"chemicalStructure": "O=C(/C=C/COc1ccc2cc1Nc1nccc(n1)-c1cccc(c1)COC/C=C/COC2)N1CCOCC1", "measuredOn": "BTK (h) (Homo sapiens, UniProt Q06187)", "units": "%", "activity at 1 µM": 82}

a = CN1C/C=C/COCc2cccc(c2)-c2ccnc(n2)Nc2cc(cc(NC(=O)/C=C/CN3CCOCC3)c2)C1
b = Nc1cc2cc(c1)Nc1nccc(n1)-c1cccc(c1)COC/C=C/COC2
c = O=C(/C=C/C(=O)N1CCNCC1)Nc1cc2cc(c1)Nc1nccc(n1)-c1cccc(c1)COC/C=C/COC2
Exercise: Hello, I need these entries ordered by activity at 1 µM, highest reading first. Thanks! Your answer should be the labels, listed in the requested order.
Key: a, c, b

====

Target: Flt3 (D835Y) (h) (Homo sapiens, UniProt P36888, D835Y)
Sequence (P36888 27-993 D835Y): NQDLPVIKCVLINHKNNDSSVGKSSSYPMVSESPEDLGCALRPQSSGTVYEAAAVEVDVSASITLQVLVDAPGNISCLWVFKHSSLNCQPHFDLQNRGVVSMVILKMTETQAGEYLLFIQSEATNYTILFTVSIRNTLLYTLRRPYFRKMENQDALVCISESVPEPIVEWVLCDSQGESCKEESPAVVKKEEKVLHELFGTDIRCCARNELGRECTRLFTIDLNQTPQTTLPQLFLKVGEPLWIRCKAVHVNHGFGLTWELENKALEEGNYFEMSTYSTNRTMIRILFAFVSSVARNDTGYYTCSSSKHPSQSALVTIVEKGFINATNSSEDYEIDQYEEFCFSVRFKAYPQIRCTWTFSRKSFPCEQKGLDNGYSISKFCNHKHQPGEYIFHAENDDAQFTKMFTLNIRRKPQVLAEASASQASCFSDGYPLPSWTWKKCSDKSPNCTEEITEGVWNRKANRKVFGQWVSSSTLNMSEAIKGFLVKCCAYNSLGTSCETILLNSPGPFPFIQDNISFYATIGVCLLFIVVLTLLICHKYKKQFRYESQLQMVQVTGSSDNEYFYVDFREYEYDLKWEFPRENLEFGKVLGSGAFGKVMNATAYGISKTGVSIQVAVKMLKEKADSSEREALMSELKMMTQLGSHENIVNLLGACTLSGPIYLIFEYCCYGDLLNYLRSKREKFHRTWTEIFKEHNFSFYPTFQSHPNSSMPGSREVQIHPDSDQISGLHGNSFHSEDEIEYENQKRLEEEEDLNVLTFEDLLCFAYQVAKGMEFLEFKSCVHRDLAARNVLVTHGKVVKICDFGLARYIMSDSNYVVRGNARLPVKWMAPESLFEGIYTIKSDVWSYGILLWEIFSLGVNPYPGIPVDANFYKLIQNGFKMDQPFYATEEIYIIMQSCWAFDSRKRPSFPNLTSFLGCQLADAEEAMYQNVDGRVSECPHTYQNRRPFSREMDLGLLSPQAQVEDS
Assay: Radioisotope labeling kinase assay (Eurofins), Flt3 (D835Y)
observationType: IC50 (nM)

Known results for molecules:
{"chemicalStructure": "C/C=C/C(=O)Nc1cc2cc(c1)Nc1nccc(n1)-c1cccc(c1)COC/C=C/CN(C)C2", "units": "nM", "IC50": 20}
{"chemicalStructure": "Nc1cc2cc(c1)Nc1nccc(n1)-c1cccc(c1)COC/C=C/COC2", "units": "nM", "IC50": 9}
{"chemicalStructure": "C#CC(=O)Nc1cc2cc(c1)Nc1nccc(n1)-c1cccc(c1)COC/C=C/COC2", "units": "nM", "IC50": 7}

P = C1=C/COCc2cccc(c2)-c2ccnc(n2)Nc2cc(cc(OC/C=C/CN3CCCC3)c2)COC/1
Q = O=C(/C=C/CN1CCOCC1)Nc1cc2cc(c1)Nc1nccc(n1)-c1cccc(c1)COC/C=C/COC2
Exercise: Please choose the item with the lower IC50 value from this pair: P and Q Indicate your choice by writing its label.
Key: P

1 = O=C(/C=C/C(=O)N1CCOCC1)Nc1cc2cc(c1)Nc1nccc(n1)-c1cccc(c1)COC/C=C/COC2
2 = CN(C)C/C=C/C(=O)Nc1cc2cc(c1)Nc1nccc(n1)-c1cccc(c1)COC/C=C/CN(C)C2
Exercise: Returns the identifier with the smallest measured IC50 among 1 and 2 . # respond with the chosen item's label
Key: 1
